Target: T1, 4H486-AA
T1 chain: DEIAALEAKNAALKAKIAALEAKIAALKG
Assay: two-hybrid library CCmax;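 also: natural log of median RNA to DNA barcode read ratio; higher means stronger binding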
Details: mean of both orientations
readout_name: interaction score

binder	result
DKIAALKAENAALEAKIAALEAEIAALEG [4H2721-AA]	2.11
DKIAALKAKIAALKAENAALEAEIAALKG [4H2898-AA]	1.49
DKIAALKAENAALEAKNAALKAKIAALKG [4H2750-AA]	1.13
DEIAALEAENAALEAEIAALKAENAALKG [4H140-AA]	-0.379

Where do the numbers come from? From paper PMC10397247.
